Origin of values: ChEMBL document CHEMBL4831485

Target or system Indoleamine 2,3-dioxygenase 1 (Homo sapiens, UniProt P14902): recorded IC50 listed per item.
Reported Property: IC50 (µM)

>>> measured_result("COc1ccc(C)c2c1CC1(C(=O)N(C)C(=O)N1C)C1=C2C(=O)c2[nH]cc(CCNC(=O)c3cccs3)c2C1=O (stereo unspecified)")
0.221
>>> measured_result("COc1ccc(C)c2c1CC1(C(=O)N(C)C(=O)N1C)C1=C2C(=O)c2[nH]cc(CCNC(=O)c3ccccc3)c2C1=O (stereo unspecified)")
0.21
>>> measured_result("COc1ccc(C)c2c1CC1(C(=O)N(C)C(=O)N1C)C1=C2C(=O)c2[nH]cc(CCNCc3cccc(OC)c3OC)c2C1=O (stereo unspecified)")
0.248
>>> measured_result("COC(=O)c1cccc(CNCCc2c[nH]c3c2C(=O)C2=C(C3=O)c3c(C)ccc(OC)c3CC23C(=O)N(C)C(=O)N3C)c1 (stereo unspecified)")
0.252
>>> measured_result("COc1ccc(C)c2c1CC1(C(=O)N(C)C(=O)N1C)C1=C2C(=O)c2[nH]cc(CCNCc3cc(OC)c(OC)c(OC)c3)c2C1=O (stereo unspecified)")
0.181
>>> measured_result("COc1ccc(C)c2c1CC1(C(=O)N(C)C(=O)N1C)C1=C2C(=O)c2[nH]cc(CCNCc3cc(F)cc(F)c3)c2C1=O (stereo unspecified)")
0.213
>>> measured_result("COc1ccc(C)c2c1CC1(C(=O)N(C)C(=O)N1C)C1=C2C(=O)c2[nH]cc(CCNC(=O)c3ccccc3Br)c2C1=O (stereo unspecified)")
0.25
>>> measured_result("COc1ccc(C)c2c1CC1(C(=O)N(C)C(=O)N1C)C1=C2C(=O)c2[nH]cc(CCNCC(C)(C)C)c2C1=O (stereo unspecified)")
0.0793
>>> measured_result("COc1ccc(CC(=O)NCCc2c[nH]c3c2C(=O)C2=C(C3=O)c3c(C)ccc(OC)c3CC23C(=O)N(C)C(=O)N3C)cc1 (stereo unspecified)")
0.33
>>> measured_result("COc1ccc(C)c2c1CC1(C(=O)N(C)C(=O)N1C)C1=C2C(=O)c2[nH]cc(CCNC(=O)OC(C)(C)C)c2C1=O (stereo unspecified)")
0.467
>>> measured_result("COc1ccc(C)c2c1CC1(C(=O)N(C)C(=O)N1C)C1=C2C(=O)c2[nH]cc(CCNC(=O)/C=C/c3ccccc3)c2C1=O (stereo unspecified)")
0.578
>>> measured_result("COc1ccc(C)c2c1CC1(C(=O)N(C)C(=O)N1C)C1=C2C(=O)c2[nH]cc(CCNCc3cccc(Cl)c3)c2C1=O (stereo unspecified)")
0.15
>>> measured_result("COc1ccc(C)c2c1CC1(C(=O)N(C)C(=O)N1C)C1=C2C(=O)c2[nH]cc(CCNCc3ccccc3C)c2C1=O (stereo unspecified)")
0.242
>>> measured_result("COc1ccc(C)c2c1CC1(C(=O)N(C)C(=O)N1C)C1=C2C(=O)c2[nH]cc(CCNC(=O)Cc3cccc(C(F)(F)F)c3)c2C1=O (stereo unspecified)")
0.441
>>> measured_result("COc1ccc(C)c2c1CC1(C(=O)N(C)C(=O)N1C)C1=C2C(=O)c2[nH]cc(CCNCc3ccc(C)c(C)c3)c2C1=O (stereo unspecified)")
0.234
>>> measured_result("COc1ccc(C)c2c1CC1(C(=O)N(C)C(=O)N1C)C1=C2C(=O)c2[nH]cc(CCNCc3ccc(C(C)(C)C)cc3)c2C1=O (stereo unspecified)")
0.265
>>> measured_result("COc1ccc(C)c2c1CC1(C(=O)N(C)C(=O)N1C)C1=C2C(=O)c2[nH]cc(CCNCCc3ccccc3)c2C1=O (stereo unspecified)")
0.159
